Across several publications, the following IC50 results were reported for Macrophage colony-stimulating factor 1 receptor (Homo sapiens).

Study these solved cases before continuing.
[[record]]
cpd_smiles = "Cc1cnc2[nH]cc(Cc3cnc(Nc4ccc(F)cc4)nc3)c2c1"
value_reported = "< 10 nM"

[[record]]
cpd_smiles = "Fc1ccc(CNc2ccc(Cc3c[nH]c4ncncc34)c(F)n2)nc1"
value_reported = "≤ 10000 nM"

[[record]]
cpd_smiles = "CCCS(=O)(=O)Nc1ccc(F)c(C(=O)c2c[nH]c3ncc(-c4ccn[nH]4)cc23)c1F"
value_reported = "≤ 10000 nM"


Please find the next molecule below.
// query // fetch Macrophage colony-stimulating factor 1 receptor (Homo sapiens) IC50 for N#Cc1cc2cnc(Nc3ccc(C4CCNCC4)c(F)c3)nc2n(C2CCCC2)c1=O
// result 1.5 nM
